Tested on: U251 CNS
Experiment: NCI tumour cell line growth inhibition, 48 h
RECORDED_METRIC: TGI (µM)
Give bare numbers, in µM.

Illustrative cases are given below, each with its answer.
- MOLECULE: "O=[N+]([O-])c1ccc(S(=O)(=O)Cc2ccccc2)c2nonc12"
  TGI, µM: 36.1
- MOLECULE: "COc1ccc(Nc2cc(C)nc(N3CCN(c4ccnc5cc(Cl)ccc45)CC3)n2)cc1"
  TGI, µM: 36.6
- MOLECULE: "CCN(CC)CCOc1ccc(C(=O)/C=C\\c2ccc(Cl)cc2Cl)cc1"
  TGI, µM: 21.3
- MOLECULE: "COc1ccc(Nc2c3ccccc3nc3[nH]c4ccccc4c23)cc1"
  TGI, µM: 42.8
- MOLECULE: "O=C1NCCS(=O)(=O)/C1=C\\C=C\\c1cccc(C(F)(F)F)c1"
  TGI, µM: 3.86
- MOLECULE: "O=C1c2nc3n(c2C(=O)c2c1nc1n2CCC1)CCC3"
  TGI, µM: 34
- MOLECULE: "Cc1nc(Nc2nc3ccccc3o2)nc(-c2cccc([N+](=O)[O-])c2)c1C(=O)Nc1ccc(F)c(Cl)c1"
  TGI, µM: 8.27
- MOLECULE: "N#Cc1cc(S(=O)(=O)Nc2nc3ccccc3s2)c(SCc2ccccc2)cc1Cl"
  TGI, µM: 38.2

Give TGI for each listed item.
1. C/C=C(\C)C(=O)N[C@H]1C(O)C[C@]2(C)C3CC[C@@]4(C)C(CC[C@@H]4C(C)N(C)C)C3CCC2C1O (some centres not stated)
2. CN(C)Cc1cc(C(C)(C)C)cc(C2CCCCC2)c1O
3. COC(=O)c1ccc(NCc2cc(O)ccc2O)cc1
4. CCC1CN2CCC3(c4ccccc4)CC(C(=O)OC)=CC1C23 (configuration not stated)

27.6
27.4
24.5
30
